Could you please report measured pest or weed control at 280.212 g/ha for the items listed next?
- System: yellow nutsedge
- Measurement Protocol: Preemergent control of plant species
- Type: in vivo, Cyperus esculentus
- Conditions Used: Cyperus, pre-emergence, 336 h; 0.25 lb/acre; read-out: percent preemergent control
For clarity, give the value followed by its unit.

// known answers, use as guide
Cc1ccn2nc(S(=O)(=O)N(C(=O)C3CCCCC3)c3c(F)cccc3F)nc2n1    100%
COc1cc(C)n2nc(S(=O)(=O)Nc3c(Cl)cccc3Cl)nc2n1    0%
COc1cccc(C(F)(F)F)c1NS(=O)(=O)c1nc2nc(C)cc(C)n2n1    100%
Cc1cc(C)n2nc(S(=O)(=O)Nc3c(C)ccc(Cl)c3C)nc2n1    95%

Here is another compound to look at.
Entry under review: Cc1cc(C(F)(F)F)n2nc(S(=O)(=O)Nc3c(F)cccc3F)nc2n1 . Reported pest or weed control at 280.212 g/ha?
50%
